The values you see were collected from PubChem BioAssay AID1794809.

biological target: Sodium- and chloride-dependent glycine transporter 1 (Homo sapiens) (UniProt P48067); experiment: PubChem AID 1794809; settings: HEK-293 SLC6A9 OE, FLIPR membrane potential dye
Sequence (P48067 whole entry, looked up): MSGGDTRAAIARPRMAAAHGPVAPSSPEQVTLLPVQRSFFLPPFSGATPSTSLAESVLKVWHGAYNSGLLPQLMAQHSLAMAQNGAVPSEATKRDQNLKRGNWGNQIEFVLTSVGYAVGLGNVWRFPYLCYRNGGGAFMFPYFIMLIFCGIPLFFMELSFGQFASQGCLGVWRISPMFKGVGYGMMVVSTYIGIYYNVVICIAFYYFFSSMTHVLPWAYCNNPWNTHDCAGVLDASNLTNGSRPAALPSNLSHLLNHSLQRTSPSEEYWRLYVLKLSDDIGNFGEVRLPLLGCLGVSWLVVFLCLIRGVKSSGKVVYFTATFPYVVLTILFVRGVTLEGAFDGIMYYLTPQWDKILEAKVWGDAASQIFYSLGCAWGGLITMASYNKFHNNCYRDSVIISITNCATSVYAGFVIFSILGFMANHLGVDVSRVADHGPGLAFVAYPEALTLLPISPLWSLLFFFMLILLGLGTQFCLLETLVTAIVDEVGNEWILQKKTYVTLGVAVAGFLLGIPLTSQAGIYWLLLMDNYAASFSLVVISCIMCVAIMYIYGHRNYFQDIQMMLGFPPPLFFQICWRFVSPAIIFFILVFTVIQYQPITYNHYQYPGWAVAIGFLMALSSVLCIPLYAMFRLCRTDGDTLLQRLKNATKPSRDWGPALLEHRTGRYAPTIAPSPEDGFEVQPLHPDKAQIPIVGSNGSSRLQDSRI
Records with an inconclusive call do not appear.
readout name: EC50

{"columns": ["chem smiles", "value observed"],
 "data": [
  ["NCC(=O)O", "106 µM"]
]}
